Record set of GI50 for target or system K-562 cells.
Attribute measured: GI50 (nM)

# Molecule, Assayed target, Attribute measured, Test result
data = [
    ("CCn1nc(C)c2c1C(=O)N(c1cc(C)c3nnc(C)n3c1)C2c1ccc(Cl)cc1F (stereo not shown) [Example 185]", "K-562 cells", "GI50", 136),
    ("COc1ncc(-n2nc3c(c2C(C)C)C(c2ccc(Cl)cc2)N(c2ccc4onc(C)c4c2)C3=O)c(OC)n1 (stereo not shown) [Example 54]", "K-562 cells", "GI50", 1530),
    ("COc1ncc(-n2nc(C)c3c2C(=O)N(c2cc(C)c(=O)n(C)c2)C3c2ccc(Cl)cc2)c(OC)n1 (racemic) [Example 52]", "K-562 cells", "GI50", 424),
    ("Cc1nn(C2CC2)c2c1C(c1ccc(Cl)cc1)N(c1cc(C)c3nnc(C(F)F)n3n1)C2=O (stereo not shown) [Example 195]", "K-562 cells", "GI50", 127),
]

----------
Record set of GI50 for target or system THP-1 cells.

# Compound, Assayed target, GI50 (nM)
records = [
    ("Cc1cc(N2C(=O)c3c(c(CO)nn3C3CC3)C2c2ccc(Cl)cc2)cn2c(C)nnc12 (stereo not shown)", "THP-1 cells", 59.7),
    ("CCn1nc2c(c1C)C(c1ccc(Cl)cc1)N(c1cc(C)c3nnc(C)n3c1)C2=O (stereo not shown)", "THP-1 cells", 34.8),
    ("Cc1nn(C2CC2)c2c1[C@@H](c1ccc(Cl)cc1)N(c1cc(C)c3nnc(C)n3n1)C2=O", "THP-1 cells", 4.32),
    ("Cc1nn(C2CC2)c2c1C(c1ccc(Cl)cc1F)N(c1cc(C)c3nnc(C)n3c1)C2=O (stereo not shown)", "THP-1 cells", 42.5),
    ("COc1ncc(-n2nc3c(c2C(F)(F)F)C(c2ccc(Cl)cc2)N(c2cc(Cl)c(=O)n(C)c2)C3=O)c(OC)n1 (stereo not shown)", "THP-1 cells", 414),
    ("COc1ncccc1-n1nc2c(c1C)C(c1ccc(Cl)cc1F)N(c1cc(C)c3nnc(C)n3c1)C2=O (stereo not shown)", "THP-1 cells", 73.2),
    ("COCc1nn(C2CC2)c2c1[C@@H](c1ccc(Cl)cc1)N(c1cc(C)c3nnc(C)n3c1)C2=O", "THP-1 cells", 17.5),
]

----------
- Test system: THP-1 cells
Recorded GI50 by entry
Attribute measured: GI50

# Compound, Assayed target, Test result
measured = [
    ("CNC(=O)n1nc(C)c2c1C(=O)N(c1cc(C)c3nnc(C)n3c1)C2c1ccc(Cl)cc1 (centres unmarked)", "THP-1 cells", "176 nM"),
    ("Cc1nn(C(C)C)c2c1[C@@H](c1ccc(Cl)cc1)N(c1cc(C)c(=O)n(C)c1)C2=O", "THP-1 cells", "26.2 nM"),
    ("COc1ncccc1-n1nc(C)c2c1C(=O)N(c1cc(C)c(=O)n(C)c1)C2c1ccc(Cl)cc1 (centres unmarked)", "THP-1 cells", "75.6 nM"),
    ("CCn1nc(C)c2c1C(=O)N(c1cc(C)c3nnc(C)n3c1)C2c1ccc(F)cc1F (centres unmarked)", "THP-1 cells", "51.9 nM"),
    ("Cc1nn(C(C)C)c2c1C(c1ccc(Cl)cc1F)N(c1cc(C)c3nnc(C)n3c1)C2=O (centres unmarked)", "THP-1 cells", "35.5 nM"),
    ("Cc1nn(-c2ccnn2C)c2c1C(c1ccc(Cl)cc1)N(c1cc(C)c(=O)n(C)c1)C2=O (racemic)", "THP-1 cells", "142 nM"),
    ("Cc1n[nH]c2c1C(c1ccc(Cl)cc1F)N(c1cc(C)c3nnc(C)n3c1)C2=O (centres unmarked)", "THP-1 cells", "135 nM"),
    ("Cc1nn(C2CC2)c2c1C(c1ccc(F)cc1F)N(c1cc(C)c3nnc(C)n3c1)C2=O (centres unmarked)", "THP-1 cells", "55.6 nM"),
]

----------
- System: K-562 cells
- Assay name: Cell growth inhibition assay (CellTiter-Glo), K-562
- Type: cell-based, human
- Reported conditions: Homo sapiens, K562
- Protocol: Cell Growth Inhibition Assay The human leukemia cell lines MV-4-11, THP-1 and K-562 were employed to characterize the effect of BET inhibitors on cellular proliferation and viability. […] Compound-mediated suppression of cell proliferation/viability was assessed by quantification of cellular ATP levels using the CellTiter-Glo (CTG) reagent (Promega). […] Dose-response effects were assessed by 3-fold serial dilutions of the test compound, starting at 10 μM. […]
Recorded GI50 by entry

# Compound, GI50
data = [
    ("COc1ccccc1-n1nc(C)c2c1C(=O)N(c1cc(C)c3nnc(C)n3c1)C2c1ccc(Cl)cc1F (stereo not shown)", "655 nM"),
    ("COCc1nn(C2CC2)c2c1[C@@H](c1ccc(Cl)cc1)N(c1cc(C)c(=O)n(C)c1)C2=O", "244 nM"),
    ("Cc1c2c(nn1C(C)C)C(=O)N(c1cc(Cl)c(=O)n(C)c1)C2c1ccc(Cl)cc1 (stereo not shown)", "554 nM"),
    ("CNC(=O)n1nc(C)c2c1C(=O)N(c1cc(C)c3nnc(C)n3c1)C2c1ccc(Cl)cc1 (stereo not shown)", "875 nM"),
]

----------
Recorded IC50 by entry
- Assayed target: CREBBP (Homo sapiens, UniProt Q92793)
- Construct: 324 nM His-CREBBP(1081-1197) (custom production at Viva Biotech Ltd.)
- Sequence (Q92793 1081-1197): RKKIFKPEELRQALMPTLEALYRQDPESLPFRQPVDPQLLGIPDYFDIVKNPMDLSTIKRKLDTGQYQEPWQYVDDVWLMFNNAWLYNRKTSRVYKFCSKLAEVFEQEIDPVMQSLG
- Assay name: AlphaScreen in-vitro binding assay for CREBBP
- Reported conditions: Biochemical IC50 values, His-CREBBP(1081-1197)

# Compound, Cmp, IC50 [µM]
records = [
    ("Cc1nn(C2CC2)c2c1C(c1ccc(Cl)cc1)N(c1cc(C)c(=O)n(C)c1)C2=O (racemic) [Example 23]", "=", 3.9),
    ("Cc1nn(C2CC2)c2c1[C@H](c1ccc(Cl)cc1)N(c1cc(C)c3nnc(C)n3c1)C2=O [Example 118]", ">", 37),
]

----------
Record set of GI50 for target or system K-562 cells.
Attribute measured: GI50

# Molecule, Attribute measured, Test result
records = [
    ("Cc1n[nH]c2c1C(c1ccc(Cl)cc1F)N(c1cc(C)c3nnc(C)n3c1)C2=O (centres unmarked)", "GI50", "659 nM"),
    ("Cn1cc(N2C(=O)c3c(c(C(F)(F)F)nn3C3CC3)C2c2ccc(Cl)cc2)cc(Cl)c1=O (centres unmarked)", "GI50", "658 nM"),
    ("Cc1cc(N2C(=O)c3nn(C(C)C)c(C)c3C2c2ccc(Cl)cc2)cn(C)c1=O (centres unmarked)", "GI50", "292 nM"),
    ("CCc1nn(CCO)c2c1C(c1ccc(Cl)cc1)N(c1cc(C)c3onc(C)c3c1)C2=O (centres unmarked)", "GI50", "920 nM"),
    ("Cc1nn(C2COC2)c2c1C(c1ccc(Cl)cc1)N(c1cc(C)c3nnc(C)n3c1)C2=O (centres unmarked)", "GI50", "248 nM"),
    ("CCc1nn(CCOC)c2c1C(c1ccc(Cl)cc1)N(c1cc(C)c(=O)n(C)c1)C2=O (centres unmarked)", "GI50", "229 nM"),
    ("CCc1nn(C(=O)N(C)C)c2c1C(c1ccc(Cl)cc1)N(c1cc(C)c(=O)n(C)c1)C2=O (centres unmarked)", "GI50", "792 nM"),
    ("COCc1nn(C2CC2)c2c1C(c1ccc(Cl)cc1)N(c1cc(C)c(=O)n(C)c1)C2=O (racemic)", "GI50", "427 nM"),
]

----------
- System: THP-1 cells
Recorded GI50 by entry

# Molecule, Cmp, GI50, nM
records = [
    ("CNC(=O)n1nc(C)c2c1C(=O)N(c1cc(C)c(=O)n(C)c1)C2c1ccc(Cl)cc1 (stereo not shown)", "=", 300),
    ("Cc1nn(-c2ccnn2C)c2c1C(c1ccc(Cl)cc1)N(c1cc(C)c3nnc(C)n3n1)C2=O (stereo not shown)", "=", 30.4),
    ("CCc1nn(CCO)c2c1C(c1ccc(Cl)cc1)N(c1cc(C)c3onc(C)c3c1)C2=O (stereo not shown)", "=", 255),
    ("Cc1cc(N2C(=O)c3nn(C4COC4)c(C)c3C2c2ccc(Cl)cc2)cn(C)c1=O (stereo not shown)", "=", 161),
    ("Cc1nn(-c2ccnn2C)c2c1[C@H](c1ccc(Cl)cc1)N(c1cc(C)c3nnc(C)n3c1)C2=O", "=", 695),
    ("CCc1nn(C2CC2)c2c1[C@H](c1ccc(Cl)cc1)N(c1cc(C)c3nnc(C)n3c1)C2=O", "=", 2110),
    ("Cc1nn(C2CC2)c2c1C(c1ccc(Cl)cc1)N(c1cc(C)c3nnc(C(F)F)n3n1)C2=O (stereo not shown)", "=", 30.3),
    ("Cc1cc(N2C(=O)c3nn(C(C)C)c(C)c3C2c2ccc(F)cc2F)cn2c(C)nnc12 (stereo not shown)", "=", 66.2),
    ("COc1ncc(-n2nc3c(c2C(C)C)[C@@H](c2ccc(Cl)cc2)N(c2cc(C)c4onc(C)c4c2)C3=O)c(OC)n1", "=", 97.7),
    ("Cc1nn(C2CC2)c2c1C(c1ccc(C(F)(F)F)cc1)N(c1cc(C)c(=O)n(C)c1)C2=O (stereo not shown)", "=", 164),
    ("Cc1cc(N2C(=O)c3c(c(C4CC4)nn3-c3ccnn3C)C2c2ccc(Cl)cc2)cn2c(C)nnc12 (stereo not shown)", "=", 31.8),
    ("CCc1c2c(nn1CCO)C(=O)N(c1cc(C)c3onc(C)c3c1)C2c1ccc(Cl)cc1 (stereo not shown)", "=", 354),
    ("Cc1cc(N2C(=O)c3n[nH]cc3C2c2ccc(Cl)cc2)cn(C)c1=O (stereo not shown)", "=", 297),
    ("Cc1nn(C(C)C)c2c1[C@H](c1ccc(Cl)cc1)N(c1cc(C)c(=O)n(C)c1)C2=O", "=", 7290),
    ("Cc1nn(C2CC2)c2c1[C@@H](c1ccc(Cl)cc1)N(c1cc(C)c3nnc(C)n3c1)C2=O", "=", 9.45),
    ("Cc1nn(C2CNC2)c2c1C(c1ccc(Cl)cc1)N(c1cc(C)c(=O)n(C)c1)C2=O (stereo not shown)", "=", 904),
    ("Cc1nn(C2CC2)c2c1[C@H](c1ccc(Cl)cc1)N(c1cc(C)c3nnc(C)n3c1)C2=O", "=", 3160),
    ("Cc1nn(C(C)C)c2c1[C@@H](c1ccc(Cl)cc1F)N(c1cc(C)c3nnc(C)n3c1)C2=O", "=", 11.3),
    ("Cc1cc(N2C(=O)c3c(c(CO)nn3C3CC3)[C@H]2c2ccc(Cl)cc2)cn2c(C)nnc12", "=", 17.1),
    ("Cc1cc(N2C(=O)c3nn(C(C)C)c(C)c3C2c2ccc(Cl)cc2)cn(C)c1=O (stereo not shown)", "=", 64.8),
    ("COCc1nn(C2CC2)c2c1[C@@H](c1ccc(Cl)cc1)N(c1cc(C)c(=O)n(C)c1)C2=O", "=", 54.6),
    ("Cc1nn(C2CC2)c2c1C(c1ccc(Cl)cc1)N(c1ccc3nnn(C)c3n1)C2=O (stereo not shown)", "=", 140),
    ("Cc1[nH]nc2c1C(c1ccc(Cl)cc1F)N(c1cc(C)c(=O)n(C)c1)C2=O (stereo not shown)", "=", 204),
    ("Cc1c2c(nn1C(C)C)C(=O)N(c1cc(Cl)c(=O)n(C)c1)C2c1ccc(Cl)cc1 (stereo not shown)", "=", 121),
    ("CCn1nc2c(c1C)C(c1ccc(Cl)cc1F)N(c1cc(C)c3nnc(C)n3c1)C2=O (stereo not shown)", "=", 61.5),
    ("COCc1nn(C2CC2)c2c1C(c1ccc(Cl)cc1)N(c1cc(C)c3nnc(C)n3c1)C2=O (stereo not shown)", "=", 35.7),
    ("Cc1nn(-c2ccnn2C)c2c1[C@H](c1ccc(Cl)cc1)N(c1cc(C)c(=O)n(C)c1)C2=O", "=", 2110),
    ("Cc1nn(C2CC2)c2c1C(c1cccc(C(F)(F)F)c1)N(c1cc(C)c(=O)n(C)c1)C2=O (stereo not shown)", "=", 1260),
    ("CCn1nc(C)c2c1C(=O)N(c1cc(C)c3nnc(C)n3c1)C2c1ccc(Cl)cc1F (stereo not shown)", "=", 36.8),
    ("Cc1nn(-c2ccnn2C)c2c1C(c1ccc(Cl)cc1)N(c1cc(C)c3nnc(C)n3c1)C2=O (stereo not shown)", "=", 51),
    ("Cc1c2c(nn1C1CC1)C(=O)N(c1cc(Cl)c(=O)n(C)c1)[C@H]2c1ccc(Cl)cc1", ">", 10000),
]
